experiment-notes: Fluorescent hydrogel phase glucose responsive assay (10 mM PBS, pH 7.4, 310 K)
experimental-parameters: 20 mM D-glucose; GBM2 10 uM, FIM 1 uM; Ex 470/Emmax 530 nm; hydrogel A (HEMA/TEGDMA)
metric: Change in Emmax for FIM at a particular D-glucose concentration

C=CC(=O)NCCOCCOCCOCCOCCOCCOCCC(=O)NCCCC[C@@H](C(=O)Nc1ccc2c(c1)C(=O)OC21c2ccc(O)cc2Oc2cc(O)ccc21)n1cc(-c2ccc(CCO[C@@H]3O[C@H](C(=O)O)[C@@H](O)[C@H](O)[C@H]3O)cc2)nn1 [FIM25] = 12%
C=CC(=O)NC(Cc1cn(CCOCCOc2ccc(CCO[C@@H]3O[C@H](CO)[C@@H](O)[C@H](O)[C@H]3O)cc2)nn1)C(=O)Nc1ccc2c(c1)C(=O)OC21c2ccc(O)cc2Oc2cc(O)ccc21 (some centres unmarked) [FIM21] = 0%

###

Listed compounds paired with reported Change in Emmax for FIM at a particular D-glucose concentration
experiment-notes: Fluorescent hydrogel phase glucose responsive assay (10 mM PBS, pH 7.4, 310 K)
experimental-parameters: 20 mM D-glucose; GBM2 10 uM, FIM 1 uM; Ex 470/Emmax 530 nm; hydrogel A (HEMA/TEGDMA)
metric: Change in Emmax for FIM at a particular D-glucose concentration (%)

C=CC(=O)NCCOCCOCCOCCOCCOCCOCCC(=O)NCCCC[C@@H](C(=O)Nc1ccc(CCO[C@@H]2O[C@H](CO)[C@@H](O)[C@H](O)[C@H]2O)cc1)n1cc(CNC(=O)c2ccc3c(c2)C(=O)OC32c3ccc(O)cc3Oc3cc(O)ccc32)nn1 = 10
C=CC(=O)NCCCC[C@@H](C(=O)Nc1ccc2c(c1)C(=O)OC21c2ccc(O)cc2Oc2cc(O)ccc21)n1cc(-c2ccc(CCO[C@@H]3O[C@H](CO)[C@@H](O)[C@H](O)[C@H]3O)cc2)nn1 = 10
C=CC(=O)NCCOCCOCCOCCOCCOCCOCCC(=O)NCCCC[C@@H](C(=O)Nc1ccc2c(c1)C(=O)OC21c2ccc(O)cc2Oc2cc(O)ccc21)n1cc(-c2ccc(CCO[C@@H]3O[C@H](CO)[C@@H](O)[C@H](O)[C@H]3O)cc2)nn1 = 8
